# SYSTEM_UNDER_TEST: rat PrRP receptor (Rattus norvegicus)
# Construct: host or cells: RC-4B/C rat pituitary cell line
# Sequence (Q64121 1-370): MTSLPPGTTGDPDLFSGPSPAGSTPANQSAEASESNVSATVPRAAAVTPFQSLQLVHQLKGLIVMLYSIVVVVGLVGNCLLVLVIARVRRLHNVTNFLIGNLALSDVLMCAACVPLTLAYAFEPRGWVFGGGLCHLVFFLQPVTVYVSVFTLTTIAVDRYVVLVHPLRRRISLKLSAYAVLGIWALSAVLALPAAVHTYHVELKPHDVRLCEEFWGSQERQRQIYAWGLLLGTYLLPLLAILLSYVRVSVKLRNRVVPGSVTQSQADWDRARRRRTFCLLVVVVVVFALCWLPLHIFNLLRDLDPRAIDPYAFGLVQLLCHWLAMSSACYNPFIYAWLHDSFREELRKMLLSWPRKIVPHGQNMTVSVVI
# METHOD: Competitive binding in RC-4B/C rat pituitary cells (125I-rat PrRP31)
# RECORDED_CONDITIONS: RC-4B/C cells, displacement of 125I-rat PrRP31; read-out: Ki, RC-4B/C rat pituitary cells ^25I-rat PrRP31
Ends that are not written are not given here.
REPORTED_PROPERTY: Ki (nM)
Report only the number, with the unit nM understood.

Identify the measured Ki of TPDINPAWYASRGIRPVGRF-NH2 [Human PrRP20, reference compound] for rat PrRP receptor (Rattus norvegicus). 1.78
